Molecular target: CXXC5-DVL interaction (Homo sapiens, UniProt O14640)
Sequence (O14640 251-323 limits assumed): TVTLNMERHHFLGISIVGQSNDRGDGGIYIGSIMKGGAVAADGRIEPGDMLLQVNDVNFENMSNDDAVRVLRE
Test: in vitro CXXC5-DVL PPI inhibition screening assay (FITC-tagged PTD-DBMP on DVL-PDZ, fluorescence)
Type: binding
Settings: 30 μM; read-out: CXXC5-DVL inhibitory activity (%)
Method: Screening for compounds that inhibit the CXXC5-DVL interaction. […] CELL. DEATH. DIFFER. […] After the addition of 10 μM FITC-tagged PTD-DBMP to each well, each compound in the chemical library or control (DMSO) was treated to the well at a final concentration of 30 μM. The fluorescence intensity was measured using a Fluorstar Optima microplate reader (BGM Lab Technologie, Ortenberg, Germany) and normalized as follows: “(‘compounds-treated group’−‘blank’)/(‘DMSO-treated control’−‘blank’)*100”.
quantity.measured: inhibition at 30 µM

# annotated cases, reported inhibition at 30 µM shown
molecule	quantity.measured	value
O=C(O)C1Sc2[nH]c(=O)sc2C2c3cc(Br)cc(Br)c3OC(=O)C12 (stereo not drawn) [Compound 5]	inhibition at 30 µM	90.5%
O=C1Nc2ccccc2/C1=C1/Nc2ccccc2/C1=N\O [Compound I3O, Indirubin-3′-oxime, reference compound]	inhibition at 30 µM	89%
O=c1cc(O)cc(/C=C/c2ccc(O)c(O)c2)o1 [Compound 11]	inhibition at 30 µM	90%
O=c1c(O)c(-c2ccc(O)cc2O)oc2cc(O)cc(O)c12 [Compound 15]	inhibition at 30 µM	85.4%
COC(=O)C1=C(C)N/C(=C/c2cc(C)n(-c3ccccc3F)c2C)C1=O [Compound 4]	inhibition at 30 µM	87.6%

Find the recorded inhibition at 30 µM belonging to COc1ccc(C)cc1/N=N/c1ccc(O)c2nc(/C=N/O)ccc12 [Compound 1] and report it. 85.2%

Find the recorded inhibition at 30 µM belonging to CCN(CC)S(=O)(=O)c1ccc(OC)c(Nc2cc(-c3ccccc3)nc(C)n2)c1 [Compound 6] and report it. 58.2%

Find the recorded inhibition at 30 µM belonging to O=C(OCCN1CCOCC1)C1(c2ccccc2)CCCCC1 [Compound 18] and report it. 86.8%

* * *

assay: solubility of A3334 in oil or surfactants (LC/MS/MS); type: physicochemical; conditions: Tween 80 (surfactant), 37 °C, aqueous with cosolvent or surfactant or cyclodextrin, thermodynamic from solid; Surfactants: Tween 80
quantity.measured: solubility at 72 h (µg/mL)
Write the number in µg/mL without appending the unit.

Find the recorded solubility at 72 h belonging to COc1ccc2c(c1)/C(=C1/Nc3ccccc3/C1=N\O)C(=O)N2 [Compound A3334, 5-Methoxyindirubin-3′-oxime] and report it. 4920

* * *

test: solubility of A3334 in oil or surfactants (LC/MS/MS); format: physicochemical; conditions: PEG 400 (co-surfactant), 37 °C, organic solvent or mixture, thermodynamic from solid; Co-Surfactant: PEG 400
quantity.measured: solubility at 72 h (µg/mL)
Write the number in µg/mL without appending the unit.

Find the recorded solubility at 72 h belonging to COc1ccc2c(c1)/C(=C1/Nc3ccccc3/C1=N\O)C(=O)N2 [Compound A3334, 5-Methoxyindirubin-3′-oxime] and report it. 3100

* * *

assay: solubility of A3334 in oil or surfactants (LC/MS/MS); assay type: physicochemical; details: 37 °C, oil or lipid, thermodynamic from solid; Oil: Sunflower oil
quantity.measured: solubility at 72 h (µg/mL)
Write the number in µg/mL without appending the unit.

Find the recorded solubility at 72 h belonging to COc1ccc2c(c1)/C(=C1/Nc3ccccc3/C1=N\O)C(=O)N2 [Compound A3334, 5-Methoxyindirubin-3′-oxime] and report it. 1350

* * *

# maps each entry to its pIC50
molecular target: CXXC5-DVL interaction (Homo sapiens, UniProt O14640); test: Dvl-CXXC5 in vitro binding assay, (PTD-DBMP)-(PZD-DVL), concentration dependent; details: FIG. 33A-33C; unit inferred; read-out: IC50, in vitro (PTD-DBMP)-(PZD-DVL) binding analyses
Answer as the number alone; pIC50 is minus log10 of concentration in mol/L.

# annotated cases, reported pIC50 shown
compound	pIC50
O=C1Nc2ccccc2/C1=C1/Nc2ccccc2/C1=N\O [Compound I3O, Indirubin-3′-oxime, reference compound]	7.00
CO/N=C1/C(=C2/C(=O)Nc3cc(Cl)c(Cl)cc32)Nc2ccccc21	8.11

Now consider a different compound.
Recall the recorded pIC50 for `COc1ccc2c(c1)/C(=C1/Nc3ccccc3/C1=N\O)C(=O)N2` with CXXC5-DVL interaction (Homo sapiens, UniProt O14640) and state it. 7.59

* * *

Assay: solubility of A3334 in oil or surfactants (LC/MS/MS)
Type: physicochemical
Conditions: 37 °C, organic solvent or mixture, thermodynamic from solid; Co-Surfactant: Transcutor P
Method: To determine emulsion solution, solubility of A3334, for example, is measured in the several oil and surfactants. A3334 is mixed with oil or surfactants (1 ml) and vortexed for 30 min. […] The supernatant was diluted with methanol and analyzed by LC/MS/MS (see e.g., Table 7). ‘Waters xevo TQ MS-ACQUITY UPLC System’ is used as an analyses equipment. […] The flow rate is 0.25 ml/min and it is analyzed by injection of 0.5 μl sample. […]
quantity.measured: solubility at 72 h (µg/mL)
Write the number in µg/mL without appending the unit.

Find the recorded solubility at 72 h belonging to `COc1ccc2c(c1)/C(=C1/Nc3ccccc3/C1=N\O)C(=O)N2` and report it. 1150

* * *

biological target: CXXC5-DVL interaction (Homo sapiens); assay: Dvl-CXXC5 in vitro binding assay, (PTD-DBMP)-(PZD-DVL), concentration dependent; conditions: FIG. 10B; read-out: CXXC5-Dvl PPI inhibition IC50
quantity.measured: pIC50
Answer as the number alone; pIC50 is minus log10 of concentration in mol/L.

Find the recorded pIC50 belonging to `COc1ccc2c(c1)/C(=C1/Nc3ccccc3/C1=N\O)C(=O)N2` and report it. 7.20

* * *

test: solubility of A3334 in oil or surfactants (LC/MS/MS); assay type: physicochemical; conditions: 37 °C, organic solvent or mixture, thermodynamic from solid; Co-Surfactant: Propylene glycol
quantity.measured: solubility at 72 h (µg/mL)
Write the number in µg/mL without appending the unit.

Find the recorded solubility at 72 h belonging to `COc1ccc2c(c1)/C(=C1/Nc3ccccc3/C1=N\O)C(=O)N2` and report it. 250

* * *

assay: solubility of A3334 in oil or surfactants (LC/MS/MS); type: physicochemical; conditions: Tween 20 (surfactant), 37 °C, aqueous with cosolvent or surfactant or cyclodextrin, thermodynamic from solid; Surfactants: Tween 20
quantity.measured: solubility at 72 h
Include the unit right after the number.

Find the recorded solubility at 72 h belonging to `COc1ccc2c(c1)/C(=C1/Nc3ccccc3/C1=N\O)C(=O)N2` and report it. 4580 µg/mL

* * *

# maps each entry to its inhibition at 30 µM
target: CXXC5-DVL interaction (Homo sapiens); assay: in vitro CXXC5-DVL PPI inhibition screening assay (FITC-tagged PTD-DBMP on DVL-PDZ, fluorescence); format: binding; conditions: 30 μM; read-out: CXXC5-DVL inhibitory activity (%)
Write the number in % without appending the unit.

# annotated cases, reported inhibition at 30 µM shown
compound	unit.of.measure	value
O=c1c(O)c(-c2cc(O)c(O)c(O)c2)oc2cc(O)cc(O)c12 [Compound 13]	%	85.2
CC(N)(Cc1ccc(O)c(O)c1)C(=O)O (stereo not shown) [Compound 14]	%	85.2
Cc1cc(C)c2c(O)nc(SCC(=O)c3ccc(O)c(O)c3)nc2n1 [Compound 3]	%	88.2
COc1ccc(C2CC(=O)C3=C(C2)Nc2onc(C)c2C3c2ccc(O)c(O)c2)cc1OC (stereo not shown) [Compound 7]	%	90.9
COc1ccc(C2CC(C(F)(F)F)n3ncc(C(=O)O)c3N2)cc1OC (stereo not shown) [Compound 2]	%	90.6

Find the recorded inhibition at 30 µM belonging to Oc1cc(O)cc(/C=C/c2ccc(O)c(O)c2)c1 [Compound 17] and report it. 85.2

Find the recorded inhibition at 30 µM belonging to CN1CCc2cc(O)cc3c2[C@H]1Cc1ccc(O)c(O)c1-3 [Compound 9] and report it. 89.4
